molecular target: UniProtKB P41143; test: Calcium mobilization assay, agonist mode, DOR; format: cell-based; parameters: expressed in transfected cells; host or cells: CHO cells (gift from Prof. Girolamo Calo, Ferrara University); details: CHO cells co-expressing DOR and GαqG66Di5; Fluo-4 AM; reference agonist DPDPE; inactive = inactive up to 10 μM; mean ± SEM, n ≥ 5
Bridge positions count the residues as written; N and C are the ends. Square brackets hold non-standard residues; d marks the D form. Peptide text beside a SMILES is read from it. d2Nal = N[C@H](Cc1ccc2ccccc2c1)C(=O)O; Dmt = Cc1cc(O)cc(C)c1C[C@H](N)C(=O)O; Tic = O=C(O)[C@@H]1Cc2ccccc2CN1

# molecule, studySystem, DOR pEC50 (CL95%)
data = [
    ("Cc1cc(O)cc(C)c1C[C@H](NC(=O)[C@@H]1Cc2ccccc2CN1C(=O)[C@@H]1CC(=O)NCCCC[C@@H](NC(=O)[C@@H]2Cc3ccccc3CN2C(=O)[C@@H](N)Cc2c(C)cc(O)cc2C)C(=O)N[C@@H](Cc2ccccc2)C(=O)N1)C(N)=O [compound 6, Dmt-Tic-c[D-Lys-Phe-Asp]-Tic-Dmt-NH2] (H-[Dmt][Tic][dK]FD[Tic][Dmt]-NH2; lactam 3-5)", "UniProtKB P41143", "inactive"),
    ("C[C@@H](NC(=O)[C@@H](N)Cc1ccc(O)cc1)C(=O)N[C@@H](Cc1ccccc1)C(=O)NCC(=O)N[C@@H](Cc1ccc(O)cc1)C(=O)N1CCC[C@H]1C(=O)N[C@@H](CO)C(N)=O [dermorphin, reference compound]", "UniProtKB P41143", "inactive"),
    ("Cc1cc(O)cc(C)c1C[C@H](N)C(=O)N1Cc2ccccc2C[C@H]1C(=O)N[C@@H]1CCCCNC(=O)C[C@@H](C(N)=O)NC(=O)[C@@H](Cc2ccc3ccccc3c2)NC(=O)[C@H](Cc2ccccc2)NC1=O [compound 2, Dmt-Tic-c[D-Lys-Phe-D-2Nal-Asp]NH2] (H-[Dmt][Tic][dK]F[d2Nal]D-NH2; lactam 3-6)", "UniProtKB P41143", "inactive"),
    ("Cc1cc(O)cc(C)c1C[C@H](N)C(=O)N1Cc2ccccc2C[C@H]1C(=O)N[C@@H]1CCCCNC(=O)C[C@@H](C(N)=O)NC(=O)[C@H](Cc2ccccc2)NC1=O [compound 5, Dmt-Tic-c[D-Lys-Phe-Asp]NH2] (H-[Dmt][Tic][dK]FD-NH2; lactam 3-5)", "UniProtKB P41143", "inactive"),
]

====

target: DOR (Homo sapiens); assay: Calcium mobilization assay, antagonism of DPDPE at DOR
Sequence (P41143 whole entry): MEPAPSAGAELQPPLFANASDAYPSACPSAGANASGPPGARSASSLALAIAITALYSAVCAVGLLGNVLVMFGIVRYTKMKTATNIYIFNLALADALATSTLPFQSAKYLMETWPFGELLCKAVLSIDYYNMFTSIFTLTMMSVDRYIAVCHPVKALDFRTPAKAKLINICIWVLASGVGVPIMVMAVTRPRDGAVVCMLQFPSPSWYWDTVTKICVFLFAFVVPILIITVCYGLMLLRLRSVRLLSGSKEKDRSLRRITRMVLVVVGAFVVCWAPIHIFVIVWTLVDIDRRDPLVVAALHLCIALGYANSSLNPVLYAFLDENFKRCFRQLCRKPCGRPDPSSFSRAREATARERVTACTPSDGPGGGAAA
Bridge positions count the residues as written; N and C are the ends. Square brackets hold non-standard residues; d marks the D form. Peptide text beside a SMILES is read from it. Dmt = Cc1cc(O)cc(C)c1C[C@H](N)C(=O)O; Tic = O=C(O)[C@@H]1Cc2ccccc2CN1
quantityKind: Kb

# compound, studySystem, reportedValue
records = [
    ("Cc1cc(O)cc(C)c1C[C@H](N)C(=O)N1Cc2ccccc2C[C@H]1C(=O)N[C@@H]1CCCCNC(=O)C[C@@H](C(N)=O)NC(=O)[C@H](Cc2ccccc2)NC1=O [compound 5, Dmt-Tic-c[D-Lys-Phe-Asp]NH2] (H-[Dmt][Tic][dK]FD-NH2; lactam 3-5)", "DOR (Homo sapiens)", "525 pM"),
    ("Cc1cc(O)cc(C)c1C[C@H](NC(=O)[C@@H]1Cc2ccccc2CN1C(=O)[C@@H]1CC(=O)NCCCC[C@@H](NC(=O)[C@@H]2Cc3ccccc3CN2C(=O)[C@@H](N)Cc2c(C)cc(O)cc2C)C(=O)N[C@@H](Cc2ccccc2)C(=O)N1)C(N)=O [compound 6, Dmt-Tic-c[D-Lys-Phe-Asp]-Tic-Dmt-NH2] (H-[Dmt][Tic][dK]FD[Tic][Dmt]-NH2; lactam 3-5)", "DOR (Homo sapiens)", "1100 pM"),
]
